FYI, the data here is from paper PMC9709406.

- System: SHEE cells
- test: MTT assay, normal esophageal epithelial cell line SHEE
- Format: cell-based
- condition.info: Homo sapiens, 48 h, n = 5
pIC50: −log10 of the molar value.
recorded.endpoint: pIC50

> print(dat)
                                 mol.smiles  recorded.endpoint  result.qualifier  value.measured
1  Fc1ccc(CCn2cc(-c3cccc(Nc4ncnc5cc6c(cc45)OCCOCCOCCO6)c3)nn2)cc1              pIC50                 =            5.08
2  Ic1ccccc1Cn1cc(-c2cccc(Nc3ncnc4cc5c(cc34)OCCOCCOCCO5)c2)nn1              pIC50                 <            4.30
3  Clc1ccc(-n2cc(-c3cccc(Nc4ncnc5cc6c(cc45)OCCOCCOCCO6)c3)nn2)cc1              pIC50                 =            5.22
4  COc1cccc(-n2cc(-c3cccc(Nc4ncnc5cc6c(cc45)OCCOCCOCCO6)c3)nn2)c1              pIC50                 =            4.55
